Task for the reader: assign each of the following molecules its reported inhibition.
target-or-system: Serine/threonine-protein kinase PAK 3 (Homo sapiens) (UniProt O75914);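 also: mean percent inhibition of PAK3, measured in a screen of the GSK published kinase inhibitor set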
Sequence (O75914 whole entry, looked up): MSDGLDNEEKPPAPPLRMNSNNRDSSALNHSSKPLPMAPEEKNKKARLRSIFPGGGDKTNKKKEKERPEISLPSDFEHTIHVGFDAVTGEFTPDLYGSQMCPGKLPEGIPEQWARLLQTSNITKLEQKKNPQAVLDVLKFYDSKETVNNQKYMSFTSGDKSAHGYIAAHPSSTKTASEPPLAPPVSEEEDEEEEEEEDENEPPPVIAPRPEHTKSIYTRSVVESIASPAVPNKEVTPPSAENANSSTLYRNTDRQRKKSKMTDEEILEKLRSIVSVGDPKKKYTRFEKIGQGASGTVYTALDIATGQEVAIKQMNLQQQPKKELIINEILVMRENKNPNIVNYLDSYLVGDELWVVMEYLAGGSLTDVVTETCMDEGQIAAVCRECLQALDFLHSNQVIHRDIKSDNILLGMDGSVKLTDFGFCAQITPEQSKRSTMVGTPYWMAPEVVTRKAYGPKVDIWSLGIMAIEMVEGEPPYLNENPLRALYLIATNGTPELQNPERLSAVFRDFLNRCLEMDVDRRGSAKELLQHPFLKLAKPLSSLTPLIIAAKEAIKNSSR
study-conditions: at 0.1 µM
Answers are plain numbers, in %.

Hey, can you go through the list below and give me inhibition for every item?
1. Cc1cc(-c2ccccn2)cc(C)c1/C=C/c1cncc(-c2nn[nH]n2)c1
2. Cc1ccc(O)cc1Nc1ccnc2ccc(S(C)(=O)=O)cc12
3. O=C1Nc2ccccc2/C1=C/Nc1ccc2[nH]c(=O)[nH]c2c1
4. COc1cccc(-n2ncc3c(N/N=C/c4ccc(C)cc4)ncnc32)c1
5. CS(=O)(=O)CCNCc1nc(-c2ccc3ncnc(Nc4ccc(OCc5cccc(C(F)(F)F)c5)cc4)c3c2)cs1

Result ::
[4.9, 5.79, 7.05, 6.06, 2.76]

For every item below, please supply its inhibition.
1. CCS(=O)(=O)c1ccc(OC)c(Nc2nccc(N(C)c3ccc4c(C)n[nH]c4c3)n2)c1
2. NC(=O)c1cccc(Nc2nccc(Nc3cccc(F)c3)n2)c1
3. Cc1cc(O)cc(C)c1/C=C/c1cncc(C(=O)N(C)C)c1
4. Cc1ccc(Nc2ccnc(Nc3cccc(C(N)=O)c3)n2)cc1O
5. CCCN1CCCC(c2ccc(Nc3nc(Nc4cc(F)ccc4C(N)=O)c4cc[nH]c4n3)c(OC)c2)C1 (stereo not given)

Result ::
1. 5.97
2. 0.23
3. -0.76
4. 3.06
5. 4.64

----------
target-or-system: Protein-tyrosine kinase 6 (Homo sapiens) (UniProt Q13882)
Sequence (Q13882 whole entry, looked up): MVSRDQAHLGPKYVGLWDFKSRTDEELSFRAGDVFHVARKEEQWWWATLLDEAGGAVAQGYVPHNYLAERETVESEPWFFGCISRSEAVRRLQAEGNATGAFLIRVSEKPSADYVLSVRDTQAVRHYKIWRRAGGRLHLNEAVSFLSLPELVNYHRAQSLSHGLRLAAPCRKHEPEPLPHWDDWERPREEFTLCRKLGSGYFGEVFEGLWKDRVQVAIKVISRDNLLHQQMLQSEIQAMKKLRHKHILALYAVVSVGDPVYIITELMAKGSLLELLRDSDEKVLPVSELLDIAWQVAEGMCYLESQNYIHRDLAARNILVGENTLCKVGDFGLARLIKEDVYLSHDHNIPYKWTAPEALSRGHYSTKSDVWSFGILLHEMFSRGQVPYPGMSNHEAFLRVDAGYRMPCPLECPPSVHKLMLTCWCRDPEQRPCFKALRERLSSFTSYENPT
study-conditions: at 1 µM
Description: GSK_PKIS: BRK mean inhibition at 1 uM [Nanosyn]
Kindly state inhibition for each of the entries shown.
For clarity, give the value followed by its unit.

Known inhibition results, listed for orientation:
chemical-structure	measured
CC(C)c1ccc2c(c1)NC(=O)/C2=N/Nc1ccc(S(N)(=O)=O)cc1	1.26%
NS(=O)(=O)c1ccc(N/N=C2\C(=O)Nc3ccc(Cl)cc32)cc1	5.96%
NS(=O)(=O)c1cccc(Nc2cc(-c3ccc(F)cc3)n[nH]2)c1	3.52%
COc1cc2ncn(-c3cc(OCc4ccccc4S(C)(=O)=O)c(C#N)s3)c2cc1OC	9.89%

Let us move to another entry and its inhibition.
Form field, inhibition with Protein-tyrosine kinase 6 (Homo sapiens) (UniProt Q13882), item Nc1nccc(-c2c(-c3ccc(F)cc3)ncn2CCCN2CCOCC2)n1 : 10.8%

----------
Would you kindly list inhibition for each of these compounds?
target-or-system: Phosphatidylinositol 4-kinase beta (Homo sapiens) (UniProt Q9UBF8);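 also: values given are mean percent inhibition of PI4K-beta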
Sequence (Q9UBF8 2-816 limits assumed): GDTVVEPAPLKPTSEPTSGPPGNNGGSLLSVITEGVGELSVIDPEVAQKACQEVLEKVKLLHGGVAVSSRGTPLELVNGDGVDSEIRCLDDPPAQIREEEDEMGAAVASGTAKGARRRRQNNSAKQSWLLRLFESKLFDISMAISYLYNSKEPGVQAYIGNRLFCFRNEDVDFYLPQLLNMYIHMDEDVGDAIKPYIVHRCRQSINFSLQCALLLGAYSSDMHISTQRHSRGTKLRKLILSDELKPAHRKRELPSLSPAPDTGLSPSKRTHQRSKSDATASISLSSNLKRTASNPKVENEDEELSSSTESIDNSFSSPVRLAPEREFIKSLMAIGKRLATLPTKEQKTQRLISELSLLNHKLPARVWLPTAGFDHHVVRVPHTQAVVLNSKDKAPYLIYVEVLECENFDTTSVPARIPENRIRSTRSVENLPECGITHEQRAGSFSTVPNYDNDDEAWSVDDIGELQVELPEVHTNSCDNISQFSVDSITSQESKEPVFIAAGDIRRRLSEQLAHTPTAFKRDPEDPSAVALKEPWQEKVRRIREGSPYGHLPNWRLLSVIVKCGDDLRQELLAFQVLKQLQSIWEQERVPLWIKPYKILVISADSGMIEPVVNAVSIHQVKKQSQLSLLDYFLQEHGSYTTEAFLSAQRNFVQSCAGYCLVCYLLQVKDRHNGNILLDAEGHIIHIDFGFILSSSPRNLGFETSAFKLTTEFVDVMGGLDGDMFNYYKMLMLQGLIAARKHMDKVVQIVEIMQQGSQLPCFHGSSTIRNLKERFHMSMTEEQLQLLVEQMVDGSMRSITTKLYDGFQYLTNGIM
study-conditions: at 0.1 µM
Please state the value followed by its unit.

compound	inhibition
O=C1Nc2ccc(-c3cccnc3)cc2C1=Cc1cc(Br)c(O)c(Br)c1	35.2%
O=C(Nc1ccc(Oc2ccc3[nH]c(NC(=O)c4ccco4)nc3c2)cc1)Nc1cc(C(F)(F)F)ccc1F	1.45%
Cc1ccc(Nc2ccnc(Nc3cccc(C(N)=O)c3)n2)cc1O	3.13%
CN(C)C(=O)O[C@@H]1CN[C@@H](C#Cc2cc3ncnc(Nc4ccc(OCc5cccc(F)c5)c(Cl)c4)c3s2)C1	-2.99%
CCn1c(-c2nonc2N)nc2c(C#CC(C)(C)O)nc(OCCNC)cc21	-2.53%
NS(=O)(=O)c1ccc(-c2cc3ccncc3cc2OCc2ccccc2)cc1	3.31%
OCc1ccc(-c2nc(-c3ccccn3)c(-c3ccc4c(c3)OCO4)[nH]2)cc1	-1.63%
Nc1nccc(-c2c(-c3ccc(F)cc3)ncn2CCCN2CCOCC2)n1	-8.25%

Batch lookup, inhibition per entry.
1. CS(=O)(=O)Nc1cccc(-c2ccc3c(NC(=O)C4CC4)n[nH]c3c2)c1
2. [O-][S+]1CCN(Cc2ccc(-c3ccc4ncnc(Nc5ccc(OCc6ccccc6)c(Cl)c5)c4c3)o2)CC1
3. Cc1ccc(C(=O)NC2CC2)cc1-c1ccc2[nH]ncc2c1
4. CC(C)c1ccc(Nc2nccc(-c3cnn4ncccc34)n2)cc1
5. O=C1Nc2ccccc2/C1=C/Nc1ccc2[nH]c(=O)[nH]c2c1
6. CCS(=O)(=O)c1ccc(OC)c(Nc2nccc(N(C)c3ccc4c(C)n[nH]c4c3)n2)c1

Result ::
["-1.63%", "-2.13%", "4.33%", "2.86%", "-0.1%", "0.2%"]

Batch request: inhibition for each of the following compounds.
1. Cc1ccc(O)cc1Nc1ccnc2ccc(S(C)(=O)=O)cc12
2. CN(C)C(=O)O[C@H]1CN[C@H](C#Cc2cc3ncnc(Nc4ccc(OCc5cccc(F)c5)c(Cl)c4)c3s2)C1
3. CCn1c(-c2nonc2N)nc2ccc(F)cc21

Result ::
-3.87%
4.95%
-0.18%

Please state inhibition for every compound in the list that follows.
1. Nc1nccc(C#Cc2cncnc2Nc2ccc(OCc3cccc(F)c3)c(Cl)c2)n1
2. CCCN1CCCC(c2ccc(Nc3nc(Nc4cc(F)ccc4C(N)=O)c4cc[nH]c4n3)c(OC)c2)C1 (configuration not stated)
3. COC(=O)Nc1nc2cc(Oc3ccc(NC(=O)Nc4cccc(Br)c4)cc3)ccc2[nH]1
4. N#Cc1c(NC(=O)c2ccccc2F)sc2c1CCCC2
5. ON=C1CCc2cc(-c3nc(C4CCNCC4)[nH]c3-c3ccncc3)ccc21

Result ::
1: -2.78%; 2: -3.21%; 3: 0.03%; 4: 0.79%; 5: 2.07%
